experimental_target: TSHR (Homo sapiens)
Construct: expressed in transfected cells
Sequence (P16473 21-764): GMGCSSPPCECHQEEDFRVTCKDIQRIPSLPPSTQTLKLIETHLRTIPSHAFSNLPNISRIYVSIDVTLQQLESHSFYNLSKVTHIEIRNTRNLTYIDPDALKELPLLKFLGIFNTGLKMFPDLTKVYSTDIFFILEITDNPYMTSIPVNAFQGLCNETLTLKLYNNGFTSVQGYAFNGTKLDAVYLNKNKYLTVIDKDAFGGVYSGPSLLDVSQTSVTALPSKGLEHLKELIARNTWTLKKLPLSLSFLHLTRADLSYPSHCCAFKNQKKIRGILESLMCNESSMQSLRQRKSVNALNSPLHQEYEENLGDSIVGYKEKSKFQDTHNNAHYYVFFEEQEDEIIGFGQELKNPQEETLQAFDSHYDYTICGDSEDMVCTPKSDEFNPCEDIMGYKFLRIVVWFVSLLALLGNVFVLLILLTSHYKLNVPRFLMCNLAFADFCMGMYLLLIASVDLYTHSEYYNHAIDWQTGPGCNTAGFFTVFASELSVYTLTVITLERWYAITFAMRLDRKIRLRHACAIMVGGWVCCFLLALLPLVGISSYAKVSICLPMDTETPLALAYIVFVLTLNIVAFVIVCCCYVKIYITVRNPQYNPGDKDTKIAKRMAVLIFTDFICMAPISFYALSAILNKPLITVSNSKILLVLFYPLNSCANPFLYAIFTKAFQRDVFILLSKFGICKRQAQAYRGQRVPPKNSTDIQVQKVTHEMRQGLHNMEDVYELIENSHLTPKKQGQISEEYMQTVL
assay_text: cAMP accumulation radioimmunoassay (RIA), inhibition of TSH-induced cAMP production in HEK-293 cells stably expressing TSHR
Format: cell-based
Design: concentration or dose not given beside the values
experimental_context: inhibiting cAMP stimulation by TSH, radioimmunoassay
recorded_endpoint: antagonistic activity (% inhibition) (%)

Worked set:
compound: O=C1C2C3CC(C2C(=O)N1c1ccccc1)C1C(c2ccc(O)cc2)c2sc(=O)[nH]c2SC31 (stereo not drawn)
experimental_target: TSHR (Homo sapiens)
recorded_endpoint: antagonistic activity (% inhibition)
unit_string: %
measured: 50
//
compound: O=C1C2C3C=CC(C3)C2C(=O)N1c1ccc(N2CCN(c3cccc(C(F)(F)F)c3)CC2)c([N+](=O)[O-])c1 (stereo not drawn)
experimental_target: TSHR (Homo sapiens)
recorded_endpoint: antagonistic activity (% inhibition)
unit_string: %
measured: 75
//
compound: O=C1[C@@H]2[C@H]3C[C@H]([C@@H]4Sc5[nH]c(=O)sc5[C@@H](c5ccc(F)cc5)[C@H]34)[C@@H]2C(=O)N1c1ccccc1 (racemic)
experimental_target: TSHR (Homo sapiens)
recorded_endpoint: antagonistic activity (% inhibition)
unit_string: %
measured: 22
//
compound: O=C1[C@@H]2[C@H]3C[C@H]([C@@H]4Sc5[nH]c(=O)sc5[C@@H](c5ccccc5)[C@H]34)[C@@H]2C(=O)N1c1ccc(O)cc1 (racemic)
experimental_target: TSHR (Homo sapiens)
recorded_endpoint: antagonistic activity (% inhibition)
unit_string: %
measured: 34
//
compound: CCOC(=O)N1CCN(c2ncc(N3C(=O)C4C(C3=O)[C@H]3C=C[C@@H]4C3)cc2[N+](=O)[O-])CC1 (stereo partly drawn)
experimental_target: TSHR (Homo sapiens)
recorded_endpoint: antagonistic activity (% inhibition)
unit_string: %
measured: 30

P = Cc1ccc(N2C(=O)C3C4CC(C3C2=O)C2C(c3ccc(N(C)C)cc3)c3sc(=O)[nH]c3SC42)cc1 (stereo not drawn)
Q = CCOC(=O)N1CCN(c2ncc(N3C(=O)[C@@H]4[C@H](C3=O)[C@H]3C=C[C@@H]4C3)cc2[N+](=O)[O-])CC1
R = O=C1C2C3CC(C2C(=O)N1c1cccc(C(F)(F)F)c1)C1C(c2ccccc2)c2sc(=O)[nH]c2SC31 (stereo not drawn)
Query: Would you mind ranking these compounds by ascending antagonistic activity (% inhibition)? List the labels according to the requested ordering.
Result: Q, P, R
(Q: 15%, P: 30%, R: 55%)
